Quick reference: OD450 of the listed items.
# test_target: T1, human MSLN-R3-his protein (human, UniProt Q13421 487-598)
# T1 construct: Made in HEK293E cells, purified on nickel column; also called hMSLN-R3-his; human MSLN-R3 protein; not shown: His tag
# T1 sequence (Q13421 495-606): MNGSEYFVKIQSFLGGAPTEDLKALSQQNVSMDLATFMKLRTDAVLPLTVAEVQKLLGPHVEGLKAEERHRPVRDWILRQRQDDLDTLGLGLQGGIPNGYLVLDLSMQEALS
# method_description: ELISA, coated antigen, antibody 100 nM

{"binder": "S009-F4-127.10 chimeric antibody (antibody, human IgG1, kappa, V domains shown, Human-murine chimeric antibody, human IgG1/kappa constant regions) VH: EVQLQQSGPVLVKPGASVKMSCKASGYTFTDYYMNWVKQSHGKSPEWIGVINPYNDVISYNQKFKGKATLTVDKSSSTAYMELNSLTSEDSAVYYCANYGSSYYAMDYWGQGTSVTVSS VL: DVVMTQTPLSLSVSLGDQASISCRSSQSLVHSNGNTYLQWSLQKPGQSPNLLIYKVSNRFSGVPDRFSGSGSGTDFTLKISRVEAEDLGVYFCSQTTHVPFTFGGGTKLEIRR", "OD450": 2.1}
{"binder": "S009-F6-76.1 chimeric antibody (antibody, human IgG1, kappa, V domains shown, Human-murine chimeric antibody, human IgG1/kappa constant regions) VH: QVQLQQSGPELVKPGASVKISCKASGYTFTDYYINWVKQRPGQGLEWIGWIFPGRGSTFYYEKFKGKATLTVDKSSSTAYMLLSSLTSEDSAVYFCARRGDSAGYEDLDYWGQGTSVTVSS VL: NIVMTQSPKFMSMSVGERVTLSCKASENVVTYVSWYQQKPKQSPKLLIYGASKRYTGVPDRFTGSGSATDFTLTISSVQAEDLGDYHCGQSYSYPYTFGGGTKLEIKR", "OD450": 0.08}
{"binder": "S009-F5-9.16 chimeric antibody (antibody, human IgG1, kappa, V domains shown, Human-murine chimeric antibody, human IgG1/kappa constant regions) VH: EVQLRQSGPVLVKPGASVKMSCKASGYTFTDYFMNWVKPSHGKSLEWIGVINPSNGVINYNQRFKGKATLTVDKSSSTAYMELNSLTSEDSAVYYCARSYDFAWFAYWGQGTLVTVSA VL: DVLMTQTPLSLPVSLGDQASISCRSSQNIVHSNGNTYLEWYLQKPGQSPKLLIYTVSNRFSGVPDRFSGSGSGTDFTLKISRVEAEDLGVYYCFQGSHVPYTFGGGTKLEIKR", "OD450": 2.28}
{"binder": "Tab106 (YP218, hIgG1) (antibody, V domains shown, Control: YP218 VH and VL recombined into human IgG1 CH and CL expression vectors; also called YP218 human IgG1 antibody) VH: QQQLEESGGGLVKPEGSLTLTCKASGFDLGFYFYACWVRQAPGKGLEWIACIYTAGSGSTYYASWAKGRFTISKASSTTVTLQMTSLAAADTATYFCARSTANTRSTYYLNLWGPGTLVTVSS VL: DVVMTQTPASVSEPVGGTVTIKCQASQRISSYLSWYQQKPGQRPKLLIFGASTLASGVPSRFKGSGSGTEYTLTISDLECADAATYYCQSYAYFDSNNWHAFGGGTEVVVRT", "OD450": 1.79}
{"binder": "S009-F4-94.15 chimeric antibody (antibody, human IgG1, kappa, V domains shown, Human-murine chimeric antibody: murine VH/VL on human IgG1 heavy and kappa light constant regions) VH: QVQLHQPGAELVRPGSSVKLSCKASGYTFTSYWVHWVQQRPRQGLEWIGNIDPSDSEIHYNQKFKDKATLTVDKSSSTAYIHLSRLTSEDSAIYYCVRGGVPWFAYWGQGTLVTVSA VL: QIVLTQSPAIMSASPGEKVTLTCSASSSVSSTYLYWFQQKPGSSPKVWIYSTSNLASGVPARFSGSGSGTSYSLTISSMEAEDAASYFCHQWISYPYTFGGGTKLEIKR", "OD450": 0.1}
